Source: ChEMBL document CHEMBL1135040

target: Metabotropic glutamate receptor 5 (Homo sapiens, UniProt P41594)
Sequence (P41594 whole entry): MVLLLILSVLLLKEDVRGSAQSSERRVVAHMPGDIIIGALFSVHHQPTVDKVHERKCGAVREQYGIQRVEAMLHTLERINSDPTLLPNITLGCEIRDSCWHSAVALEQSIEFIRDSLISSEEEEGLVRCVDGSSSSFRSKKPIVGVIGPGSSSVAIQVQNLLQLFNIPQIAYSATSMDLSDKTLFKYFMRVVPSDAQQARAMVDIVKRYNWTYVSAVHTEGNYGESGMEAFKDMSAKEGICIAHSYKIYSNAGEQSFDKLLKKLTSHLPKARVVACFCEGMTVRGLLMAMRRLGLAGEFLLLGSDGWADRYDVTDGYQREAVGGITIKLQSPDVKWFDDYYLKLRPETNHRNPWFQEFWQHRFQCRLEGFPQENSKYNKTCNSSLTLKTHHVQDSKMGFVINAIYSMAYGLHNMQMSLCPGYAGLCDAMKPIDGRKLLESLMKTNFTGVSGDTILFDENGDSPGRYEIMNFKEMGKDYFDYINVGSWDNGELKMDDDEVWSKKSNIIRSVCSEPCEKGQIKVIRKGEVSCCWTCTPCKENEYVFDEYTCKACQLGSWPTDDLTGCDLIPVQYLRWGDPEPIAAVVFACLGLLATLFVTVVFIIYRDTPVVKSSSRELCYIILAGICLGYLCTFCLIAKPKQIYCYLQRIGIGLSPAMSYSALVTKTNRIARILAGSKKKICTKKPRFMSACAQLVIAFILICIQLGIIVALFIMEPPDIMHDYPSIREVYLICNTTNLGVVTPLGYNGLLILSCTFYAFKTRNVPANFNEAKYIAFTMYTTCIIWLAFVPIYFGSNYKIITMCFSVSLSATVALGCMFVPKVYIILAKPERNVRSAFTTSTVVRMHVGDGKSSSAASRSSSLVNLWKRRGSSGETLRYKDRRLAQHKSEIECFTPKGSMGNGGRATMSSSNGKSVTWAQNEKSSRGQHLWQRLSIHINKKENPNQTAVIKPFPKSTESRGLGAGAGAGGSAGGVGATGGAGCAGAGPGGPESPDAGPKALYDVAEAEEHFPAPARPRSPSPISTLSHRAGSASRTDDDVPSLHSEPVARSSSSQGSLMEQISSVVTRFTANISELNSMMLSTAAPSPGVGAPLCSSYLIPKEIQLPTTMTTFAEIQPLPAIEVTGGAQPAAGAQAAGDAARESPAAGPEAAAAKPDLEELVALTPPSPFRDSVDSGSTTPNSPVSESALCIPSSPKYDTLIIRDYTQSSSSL
method: Tested in vitro binding affinity for displacement of [3H]M-MPEP from membrane of L(-tk) cells expressing the Metabotropic glutamate receptor 5, activity expressed as IC50
So I've got a bunch of compounds here, and I need their pIC50 values.
Reminder that pIC50 is minus the log10 of a molar concentration.

Exercise: For Cc1cccc(/C=C/c2ccccc2)n1 , write its pIC50.
Key: 5.96

Exercise: Determine its reported pIC50: [3H]C([3H])([3H])OCc1cccc(C#Cc2cccc(C)n2)c1
Key: 8.44
